system: P. falciparum 3D7; experiment: DAPI stain fluorescent high content imaging assay, P. falciparum 3D7 (confirmatory screen, Avery); conditions: Plasmodium falciparum, 3D7, read-out: EC50_nM
parameter: pEC50
Worth noting: pEC50 values are minus log10 of concentrations stated in mol/L.

Solved entries:
- molecule: "CN(C)CCCNc1c2ccccc2nc2ccccc12"
  pEC50: 6.63
- molecule: "COc1cccc(C=Cc2nc(=O)c3ccccc3o2)c1OC"
  pEC50: 7.62
- molecule: "CCOc1ccc(Nc2c3ccccc3nc3ccccc23)cc1"
  pEC50: 5.97
- molecule: "CCOc1ccc(Nc2ccnc3cc(Cl)ccc23)cc1"
  pEC50: 5.40
- molecule: "CCCCCCOC(=O)C1=C(C)NC(=O)NC1c1ccccc1F (stereo not drawn)"
  pEC50: 6.97

Asked: // pEC50 lookup, key: CCCCCCc1cc2cc(-c3csc(C=Cc4ccccc4)n3)c(=O)oc2cc1O
Given back: 6.41

Asked: Please answer likewise for Cc1ccccc1OCCSc1nc2ccc(NC(=O)c3cccs3)cc2s1
Given back: 6.16

Asked: Please answer likewise for O=C(CCc1ccccc1)c1ccccc1OCC(O)CN1CCCCC1 (stereo not drawn)
Given back: 6.17

Asked: Please answer likewise for CCOc1ccc(C2N(C)c3ccccc3N2C)cc1
Given back: 6.03

Asked: Please answer likewise for Oc1c(C(Nc2ccccn2)c2cccc(Oc3ccccc3)c2)ccc2cccnc12 (stereo not drawn)
Given back: 6.00

Asked: Please answer likewise for CCN(CC)CCn1c(=N)n(CC(O)c2ccc(Cl)c(Cl)c2)c2ccccc21 (stereo not drawn)
Given back: 6.14

Asked: Please answer likewise for CCCCOC(=O)c1ccc(Nc2cc(C)nc3ccc(OC)cc23)cc1
Given back: 6.23

Asked: Please answer likewise for OCCNc1nc(Nc2ccc(Cl)c(Cl)c2)nc2ccccc12
Given back: 6.23

---

tested on: P. falciparum 3D7; experiment: DAPI stain fluorescent high content imaging assay, P. falciparum 3D7 (confirmatory screen, Avery); conditions: Plasmodium falciparum, 3D7, read-out: EC50_nM
parameter: EC50 (nM)
Report only the number, with the unit nM understood.

Solved entries:
- compound: "Cc1sc(NC(=O)c2ccccc2)c(C(c2cccs2)N2CCN(c3ccccc3)CC2)c1C (stereo not drawn) [MMV396652]"
  tested_on: "P. falciparum 3D7"
  EC50 [nM]: 1180
- compound: "Clc1cc(Br)ccc1-c1ccc(CNCC2CCNCC2)o1 [MMV019918]"
  tested_on: "P. falciparum 3D7"
  EC50 [nM]: 800
- compound: "CCOc1ccccc1CNC(=O)C1c2ccccc2C(=O)N(CC(C)C)C1c1cccs1 (stereo not drawn) [MMV000653]"
  tested_on: "P. falciparum 3D7"
  EC50 [nM]: 1320

Asked: // EC50 lookup, key: CCOc1c(Br)cc(C2C(C(=O)OC)=CN(C)C=C2C(=O)OC)cc1OC [MMV006764]
Given back: 512

Asked: Please answer likewise for CN1C=C(c2ccc3ccccc3n2)C(c2c[nH]c3ccccc23)c2ccccc21 (stereo not drawn) [MMV008160]
Given back: 552

Asked: Please answer likewise for CC1CC2=C(CC1CNCCCN(C)C)C(C)(C)CCC2 (stereo not drawn) [MMV665830]
Given back: 1000

---

tested on: P. falciparum 3D7; assay: DAPI stain fluorescent high content imaging assay, P. falciparum 3D7 (confirmatory screen, Avery); conditions: Plasmodium falciparum, 3D7, read-out: EC50_nM
Property: EC50; scope: individual molecules
Report only the number, with the unit nM understood.

Solved entries:
- molecule: "CCN(CC)CCNc1ccnc2cc3ccccc3cc12 [MMV006303]"
  tested_on: "P. falciparum 3D7"
  experimental_result: 391
- molecule: "COc1ccccc1C(=O)ON=C(N)Cc1cccc2ccccc12 [MMV666686]"
  tested_on: "P. falciparum 3D7"
  experimental_result: 814
- molecule: "Cc1ccc(C(=O)c2oc3ccc4c(C)cc(=O)oc4c3c2C)cc1 [MMV086103]"
  tested_on: "P. falciparum 3D7"
  experimental_result: 906
- molecule: "O=C(Cc1ccccc1)NC(c1ccc(Cl)cc1)c1c(O)ccc2ccccc12 (stereo not drawn) [MMV665972]"
  tested_on: "P. falciparum 3D7"
  experimental_result: 1140

Asked: # query: EC50 | item Cc1ccc(C)c(Cn2c(N3CCC(C(=O)NCc4cccs4)CC3)nc3ccccc32)c1 [MMV019741] | system: P. falciparum 3D7
Given back: 1330

Asked: Please answer likewise for c1ccc(Cn2c(N=Nc3c(Nc4ccccc4)ccc4ccccc34)nc3ccccc32)cc1 [MMV666023]
Given back: 36.8

Asked: Please answer likewise for Oc1ccc(Br)cc1CN1CCN(Cc2cccc(F)c2)CC1 [MMV000356]
Given back: 1030

Asked: Please answer likewise for COc1ccc(CNC2CCN(c3ccc(NC(=O)c4cccc(Cl)c4)cc3)CC2)cc1OC [MMV666067]
Given back: 663

Asked: Please answer likewise for COCCNCC(O)Cn1c2ccc(Cl)cc2c2cc(Cl)ccc21 (stereo not drawn) [MMV019017]
Given back: 1010
